- Test target: T1, IL10Rα/IL2Rγ receptor (human, UniProt Q13651 22-578; P31785 23-369)
- T1 sequence (looked up) 1: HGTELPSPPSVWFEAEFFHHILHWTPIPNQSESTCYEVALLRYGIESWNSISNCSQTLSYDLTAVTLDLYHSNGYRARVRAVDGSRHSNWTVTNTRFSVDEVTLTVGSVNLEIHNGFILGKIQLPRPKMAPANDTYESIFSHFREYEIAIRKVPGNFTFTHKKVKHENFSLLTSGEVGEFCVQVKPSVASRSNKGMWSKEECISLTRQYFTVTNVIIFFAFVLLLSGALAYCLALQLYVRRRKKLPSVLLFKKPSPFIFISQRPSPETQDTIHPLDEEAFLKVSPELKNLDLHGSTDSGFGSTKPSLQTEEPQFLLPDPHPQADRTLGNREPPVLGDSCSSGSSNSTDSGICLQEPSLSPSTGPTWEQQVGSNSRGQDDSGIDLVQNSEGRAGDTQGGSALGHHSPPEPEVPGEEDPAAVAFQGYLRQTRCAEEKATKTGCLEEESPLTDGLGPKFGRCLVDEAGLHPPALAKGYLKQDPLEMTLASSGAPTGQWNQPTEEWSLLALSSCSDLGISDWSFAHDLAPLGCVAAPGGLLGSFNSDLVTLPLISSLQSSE
- T1 sequence (looked up) 2: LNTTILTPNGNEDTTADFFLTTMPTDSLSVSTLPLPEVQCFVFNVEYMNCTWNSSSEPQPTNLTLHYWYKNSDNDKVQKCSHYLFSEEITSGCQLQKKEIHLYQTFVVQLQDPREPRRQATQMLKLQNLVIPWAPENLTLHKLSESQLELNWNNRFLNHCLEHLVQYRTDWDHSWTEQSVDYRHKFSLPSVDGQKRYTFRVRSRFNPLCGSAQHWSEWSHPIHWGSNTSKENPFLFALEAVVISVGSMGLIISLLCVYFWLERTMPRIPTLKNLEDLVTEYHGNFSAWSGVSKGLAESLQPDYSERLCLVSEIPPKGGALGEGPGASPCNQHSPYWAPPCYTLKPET
- Experiment notes: cell-based or functional assay
Kindly state pSTAT3 MFI, CD4 T cells, 0.1 nM (unstimulated 1887) for each of the entries shown.
Give bare numbers, in MFI.

// worked examples, pSTAT3 MFI, CD4 T cells, 0.1 nM (unstimulated 1887) included
DR395(DR229-DR239) (bispecific antibody) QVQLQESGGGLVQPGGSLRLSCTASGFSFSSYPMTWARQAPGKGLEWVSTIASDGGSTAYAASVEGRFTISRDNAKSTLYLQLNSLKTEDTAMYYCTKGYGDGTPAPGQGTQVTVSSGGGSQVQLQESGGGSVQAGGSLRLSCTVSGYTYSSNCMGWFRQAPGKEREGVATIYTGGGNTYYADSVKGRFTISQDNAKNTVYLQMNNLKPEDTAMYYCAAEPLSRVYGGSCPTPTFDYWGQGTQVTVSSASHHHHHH : 2450
DR465(DR240-DR231) (bispecific antibody) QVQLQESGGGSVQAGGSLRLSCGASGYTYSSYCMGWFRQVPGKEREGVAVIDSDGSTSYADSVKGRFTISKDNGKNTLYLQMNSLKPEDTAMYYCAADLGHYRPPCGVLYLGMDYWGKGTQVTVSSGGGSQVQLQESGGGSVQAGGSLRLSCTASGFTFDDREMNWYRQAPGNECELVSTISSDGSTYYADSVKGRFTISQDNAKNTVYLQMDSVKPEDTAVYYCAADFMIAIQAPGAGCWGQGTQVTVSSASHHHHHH : 2210

Problem: Return the recorded pSTAT3 MFI, CD4 T cells, 0.1 nM (unstimulated 1887) value; entry: DR441(DR236-DR231) (bispecific antibody) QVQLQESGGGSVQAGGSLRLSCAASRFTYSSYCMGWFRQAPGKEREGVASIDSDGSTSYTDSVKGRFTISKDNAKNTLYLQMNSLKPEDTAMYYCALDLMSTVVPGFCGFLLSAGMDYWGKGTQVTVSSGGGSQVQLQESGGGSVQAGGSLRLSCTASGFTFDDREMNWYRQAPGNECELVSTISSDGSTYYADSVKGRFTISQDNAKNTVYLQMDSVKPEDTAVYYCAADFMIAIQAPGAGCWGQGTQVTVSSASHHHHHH
Solution: 2240

Numbers sourced from patent US20250163162A1.
